# Measured On: Glucocorticoid receptor (Homo sapiens) (UniProt P04150)
# Sequence (P04150 whole entry, looked up): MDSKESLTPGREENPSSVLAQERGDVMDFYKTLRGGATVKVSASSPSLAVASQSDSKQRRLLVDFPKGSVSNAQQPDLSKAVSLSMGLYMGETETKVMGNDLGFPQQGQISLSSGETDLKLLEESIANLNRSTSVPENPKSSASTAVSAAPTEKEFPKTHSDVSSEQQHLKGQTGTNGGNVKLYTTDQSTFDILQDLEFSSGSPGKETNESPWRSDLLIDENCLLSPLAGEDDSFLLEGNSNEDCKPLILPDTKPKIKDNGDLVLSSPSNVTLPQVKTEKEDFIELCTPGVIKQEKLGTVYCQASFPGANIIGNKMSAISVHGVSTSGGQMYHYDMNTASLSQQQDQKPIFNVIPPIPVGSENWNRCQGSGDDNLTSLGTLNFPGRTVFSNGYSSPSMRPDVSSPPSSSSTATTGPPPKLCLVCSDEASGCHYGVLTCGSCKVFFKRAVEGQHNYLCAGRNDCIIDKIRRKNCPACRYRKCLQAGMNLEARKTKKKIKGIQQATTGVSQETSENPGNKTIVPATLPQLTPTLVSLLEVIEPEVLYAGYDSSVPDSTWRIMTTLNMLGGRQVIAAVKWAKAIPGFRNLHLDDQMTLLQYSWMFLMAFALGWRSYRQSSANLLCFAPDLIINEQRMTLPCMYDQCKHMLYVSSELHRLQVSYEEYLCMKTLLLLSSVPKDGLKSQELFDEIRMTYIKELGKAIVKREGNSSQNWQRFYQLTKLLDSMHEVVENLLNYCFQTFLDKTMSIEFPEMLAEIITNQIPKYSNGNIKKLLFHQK
# Assay Overview: qHTS assay for small molecule antagonists of glucocorticoid receptor signaling (AID 588533);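 further: cells stimulated with 2 nM dexamethasone as agonist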
# Recorded Conditions: HeLa MMTV-bla, GRE beta-lactamase ratio, antagonist mode, 18 h; series mostly up to 76.8 µM
# Excerpt: NIH Chemical Genomics Center [NCGC] U.S. Environmental Protection Agency [EPA] National Institutes of Environmental Health Sciences [NIEHS] National Toxicology Program [NTP] […] NCGC Assay Protocol Summary Using a beta-lactamase reporter-gene under control of glucocorticoid response element (GRE), a cell-based assay [CellSensor MMTV-bla HeLa cell line assay developed by Invitrogen] was used to measure GR ligands signaling. […] Detection; Fluorescence; Envision plate reader
Inconclusive results are not listed. Activity calls are given as the source filed them. The call rests on the fitted dose curve; in most records, active means well fitted inhibition curve with a large enough effect in the signal ratio, with a control signal flat (not every such curve was filed as active); inconclusive means small, poorly fitted or top-dose-only effect, or effect the other way, or a change in a side signal; inactive means flat fitted curve, though single readings scatter; the % refers to the signal ratio.
Reply using exactly one outcome from Yes = active, No = inactive

Past entries and their recorded results:
Query :: Any idea what this test logged for ClC1=C(Cl)[C@]2(Cl)[C@@H]3[C@@H]4C[C@@H]([C@H]5O[C@@H]45)[C@@H]3[C@@]1(Cl)C2(Cl)Cl ?
Result :: No

Query :: Assay result, entry CC(=O)[O][Hg][c]1ccccc1 — outcome?
Result :: Yes

Query :: Please indicate how the test categorized O=C(O)COc1ccccc1 .
Result :: No

Query :: Per the assay record, what outcome was assigned to Cc1cc(O)ccc1Cl ?
Result :: No

Query :: Call for entry CCCCC(CC)COC(=O)c1ccccc1C(=O)OCC(CC)CCCC (stereo unspecified) :
Result :: No

Okay, next one:
Query :: Query: recorded result category for O=C(O)c1cc(Oc2ccc(C(F)(F)F)cc2Cl)ccc1[N+](=O)[O-] in this test
Result :: No

---

Items are presented alongside their recorded max response.
# Tested on: HEK293
# Assay Overview: Cytotoxic Profiling of Annotated Libraries Using Quantitative High-Throughput Screening (AID 1296008); further: on the % scale 0 is the no-effect control and ±100 the full control effect; nearly all actives have a fitted effect of over 60% in size
# Recorded Conditions: Five cell lines viability, CellTiter-Glo ATP luminescence, 48-72 h; stronger effect = lower value
Results filed as inconclusive are left out.
Write the number in % without appending the unit.

Query :: Provide the documented max response with HEK293 as the system for Fc1cc(Br)ccc1CBr
Result :: -1.72

Query :: Request body: readout max response, system HEK293, query CC(C)NCC(O)c1ccc([N+](=O)[O-])cc1 (stereo unspecified) . Return the value.
Result :: -8.6

Query :: Notebook: pull reported max response for HEK293, entry Nc1c(Cl)c(Cl)c(Cl)c(Cl)c1Cl
Result :: -6.61

Query :: max response of COC(=O)c1cncn1C(C)c1ccccc1 (stereo unspecified) on HEK293?
Result :: -16.1

Query :: Missing value: max response, HEK293, entry CN[C@@H]1Cc2cccc3[nH]c(=O)n(c23)C1 . Fill in?
Result :: -16.4

Further cases:
Query :: Notebook entry, HEK293 assay: max response of O=C1C(I)=CC(=C(c2cc(I)c(O)c(I)c2)c2ccccc2C(=O)O)C=C1I = ?
Result :: -13.3

Query :: Report max response for COC(C)(C)CCCC(C)C/C=C/C(C)=C/C(=O)OC(C)C (stereo unspecified) tested on HEK293.
Result :: 3.25

Query :: // lookup max response | system=HEK293 | key= S=C(NC1CCCCC1)N1CCC(c2cnc[nH]2)CC1
Result :: -0.423

Query :: Give the reported max response for CCC(=O)O[C@@H]1C=C2CCC3C(CCC4(C)C3CC[C@@H]4OC(=O)CC)C2CC1 (stereo partly specified) (system: HEK293).
Result :: 2.37

Query :: Lab note: need max response with HEK293 for entry C#C[C@]1(O)C=C[C@@H]2[C@@H]3CCC4=CC(=O)CC[C@@H]4[C@H]3CC[C@@]21CC , please look it up.
Result :: -3.75

Query :: // map Cc1cc(O)ccc1Cl to recorded max response (system: HEK293)
Result :: 0.405

Query :: Hello, I am looking for reported max response with HEK293 for CC(=Cc1csc(C)n1)[C@@H]1C[C@H]2O[C@]2(C)CCC[C@H](C)[C@@H](O)[C@@H](C)C(=O)C(C)(C)[C@@H](O)CC(=O)O1 . Could you help?
Result :: -85.5

---

# Assay Overview: qHTS of pediatric cancer cell lines to identify multiple opportunities for drug repurposing: Confirmatory screen for NB1643 cells (AID 1347109); further: nearly all actives have a fitted effect of over 45% in size
# Recorded Conditions: NB1643 neuroblastoma cell viability; series mostly up to 45.9 µM
Inconclusive results are not listed. The source made the active and inactive calls. The call rests on the fitted dose curve; in most records, active means well fitted cell-killing curve with a large enough effect; inconclusive means small, poorly fitted or top-dose-only effect, or effect the other way; inactive means no such curve, though single readings can be large or run the other way.
API: response.call in T (active), F (inactive)

Take a look at these entries with their results.
Query :: Name the outcome recorded for CC(C)(C)C(O)C(Oc1ccc(Cl)cc1)n1cncn1 (centres undefined) in the assay.
Result :: F

Query :: What did this assay record as the result for Cc1ccccc1-n1c(Cn2cnc3c(N)ncnc32)nc2cccc(C)c2c1=O ?
Result :: F

Query :: Could you please tell me the result logged for O=C(Nc1ccncc1)C(=O)c1cn(Cc2ccc(Cl)cc2)c2ccccc12 in this assay?
Result :: T

Query :: Field: outcome | Entry: CC(C)N[C@@H]1CCn2c(=O)[nH]c3cccc(c32)[C@@H]1O
Result :: F

Query :: Field: outcome | Entry: CC[C@@H]1[C@@H](C)O[C@@](O)([C@@H](C)[C@H](O)[C@H](C)[C@H]2OC(=O)C=CC=C[C@@H](C)[C@@H]([C@@H](C)[C@@H](O)[C@H](C)[C@@]3(O)C[C@H](O[C@H]4C[C@H](O)[C@H](O)[C@H](C)O4)[C@H](CC)[C@@H](C)O3)OC(=O)C=CC=C[C@@H]2C)C[C@H]1O[C@H]1C[C@H](O)[C@H](O)[C@H](C)O1
Result :: F

Query :: Per the assay record, what outcome was assigned to Cc1ccccc1-n1c(Cn2ncc3c(N)ncnc32)nc2cccc(C)c2c1=O ?
Result :: T

Query :: Hello, I am checking results. What call was entered for CC(=O)[O][Hg][c]1ccccc1 ?
Result :: T

Query :: Give the logged outcome of this assay for the following compound: CC(C)(O)C=CC(=O)[C@](C)(O)[C@H]1[C@H](O)C[C@]2(C)[C@@H]3CC=C4[C@@H](C=C(O)C(=O)C4(C)C)[C@]3(C)C(=O)C[C@@]12C
Result :: T

---
Query :: Tell me the recorded outcome of this test for CC=C(C)C(=O)O[C@H]1C(C)=C2[C@@H]3OC(=O)[C@@](C)(O)[C@@]3(O)[C@@H](OC(=O)CCC)C[C@](C)(OC(C)=O)[C@@H]2[C@@H]1OC(=O)CCCCCCC .
Result :: F

Query :: Recorded test outcome, item CC1=C(O)C(=O)C=C2C1=CC=C1[C@@]2(C)CC[C@@]2(C)[C@@H]3C[C@](C)(C(=O)O)CC[C@]3(C)CC[C@]12C
Result :: T

---

# Assay Overview: Quantitative High-Throughput drug screen in 47 multiple myeloma cell lines against the NCATS MIPE library collection: H1112_PLB cell viability assay (AID 1918967; further: nearly all actives have a fitted effect of over 30% in size)
# Recorded Conditions: H1112 myeloma cells viability, ATP luminescence, 48 h; series mostly up to 45.8 µM
Results filed as inconclusive are left out. The source made the active and inactive calls. Calls follow the shape of the dose curve; as a rule, active = well fitted cell-killing curve with a large enough effect; inconclusive = small, poorly fitted or top-dose-only effect, or effect the other way; inactive = no such curve, though single readings can be large or run the other way.
Choose one outcome from this list and give only that: true for active, false for inactive

Query :: Can you look up the reported call for CC(C)(C)c1cc(C=C(C#N)C#N)cc(Br)c1O for me?
Result :: true

# input for lookup
Query :: For CC1=NN=C(c2ccc(N)cc2)c2cc3c(cc2C1)OCO3 , which call appears in the assay record?
Result :: false

---

# Assay Overview: Quantitative High-Throughput drug screen in 47 multiple myeloma cell lines against the NCATS MIPE library collection: AMO1_DSMZ cell viability assay (AID 1918927; further: nearly all actives have a fitted effect of over 30% in size; further: potency means the concentration at half of the fitted maximal effect)
# Recorded Conditions: AMO1 myeloma cells viability, CellTiter-Glo ATP luminescence, 48 h; series mostly up to 45.8 µM
# Description: PI: Beverly A. Mock Ph.D. Laboratory of Cancer Biology and Genetics, Center for Cancer Research, National Cancer Institute, National Institute of Health, Bethesda, Maryland […] 5; Detector; 425V; Luminescence; Viewlux PerkinElmer. […] 1. […] Briefly, the corresponding myeloma cell lines were screened in 1,536-well plates with 500 cells, 5-uL per well for inhibition of cell viability (assessed by measuring ATP levels with CellTiterGlo). […]
Inconclusive results are not listed. Active and inactive are the calls of the source. The call rests on the fitted dose curve; in most records, active means well fitted cell-killing curve with a large enough effect; inconclusive means small, poorly fitted or top-dose-only effect, or effect the other way; inactive means no such curve, though single readings can be large or run the other way.
Experimental Endpoint: Potency

# example entries with known answers
Query :: Could you tell me which Potency is on file for C[C@]12CC[C@@H]3[C@@H](CCC4=CC(=O)CC[C@@H]43)[C@@H]1CC[C@@H]2OC(=O)CCc1ccccc1 ?
Result :: inactive

Query :: Report Potency for O=C(NCC1CCOCC1)c1cnc(Nc2ccc(Cl)cc2Cl)nc1C(F)(F)F please.
Result :: 18.7 µM (active)

Query :: Given the compound C[C@]12CC[C@H](O)CC1=CC[C@H]1[C@H]3CCC(=O)[C@@]3(C)CC[C@@H]12 , what is its reported Potency?
Result :: 18.7 µM (active)

Query :: GET /values?readout=Potency&item= CCOC(=O)Nc1ccc(NCc2ccc(F)cc2)cc1N
Result :: inactive

Query :: // returns reported Potency for input Cc1c(C(=O)Nc2cccc(C(F)(F)F)c2)cc(-c2ccccc2)n1CCCN1CCOCC1
Result :: 8.33 µM (active)

Others:
Query :: For CC(C)[C@H]1C(=O)N[C@H](CO)Cc2c[nH]c3cccc(c23)N1C , what is its reported Potency?
Result :: inactive

Query :: Potency for COc1ccc(N(C(=O)Oc2c(C)cccc2C)c2ccnc(Nc3ccc(N4CCN(C)CC4)cc3)n2)c(OC)c1 ?
Result :: 1.48 µM (active)

Query :: Entry under review: C=CCON=C(C[C@H]1O[C@@H]2O[C@]3(C)CC[C@@H]4[C@H](C)CC[C@@H]([C@H]1C)[C@@]24OO3)[C@H]1O[C@@H]2O[C@]3(C)CC[C@H]4[C@H](C)CC[C@@H]([C@@H]1C)[C@@]24OO3 . Reported Potency?
Result :: 0.118 µM (active)

Query :: Reported Potency for NC1=NC(=O)N2CC12 (centres undefined) : what is it?
Result :: 13.2 µM (active)
